System: G. duodenalis BRIS/91/HEPU/1279
Assay: Primary Giardia screen at 10 µM (live-cell imaging, automated counting)
Format: cell-based, Giardia duodenalis
Settings: 48 h, first singlicate assay
Protocol: Each compound was assessed in singlicate, at a final concentration of 10 μM (0.4 μL of a 5 mM stock; diluted to a final volume of 200 μL in culture medium; 0.2% DMSO). […] Plates were incubated in sealed chambers filled with 3% O2, 5% CO2 in N2 and growth was assessed at 24 and 48 h using live cell imaging and automated counting as previously described. […] The reliability of these assays was assessed by calculating Z’ factors for each plate as previously described.
We begin with a simple list: items and their reported % Inhibition n=1 48h.
Lab book: enter the figure in %, no units written.

O=C1C(=O)N(C2CCCC2)C(=O)N1Cc1nc(-c2ccsc2)no1; 0.0
Cc1cccc(-c2noc(Cn3cccn3)n2)c1; 0.0
Cc1nnc2n1CCN(C(=O)c1cnc(-c3ccccc3)s1)C2; 22.7
O=C(NCc1ccccc1)c1ccc(-c2cc(N3CCOCC3)ncn2)cc1; 12.2
Cc1ccc(Cn2ccc3nc(N4CCCCC4)ncc3c2=O)cc1; 15.1
CCOc1ccc(CCNC(=O)c2c(C)oc3c2C2=NCCN2C=N3)cc1OCC; 17.8
CCc1ccc(C2=Nc3ncnn3/C2=N/Cc2ccc(F)cc2)cc1; 1.3
O=C(N[C@H]1C[C@@H]2C[C@H]1CN2S(=O)(=O)c1ccc2c(c1)CCCC2)c1cccnc1; 0.6
Cc1sc2cc(C(=O)N3CCN(c4ccc(F)cc4)CC3)[nH]c2c1CN1CCOCC1; 27.9
COc1ccc(CNC(=O)c2cc3c(=O)n(Cc4ccccc4)ccc3s2)cc1; 0.0

The compound `Cc1nn(-c2nc(-c3ccccc3)cs2)c(O)c1CC(=O)N1CCN(c2ccc(F)cc2)CC1` showed % Inhibition n=1 48h equal to 0.0

Please fill in: % Inhibition n=1 48h reported for `CCCCn1c(=O)[nH]c2cc(-c3nc(-c4ccc(F)cc4)no3)ccc2c1=O` = 0.3

====

System: G. duodenalis BRIS/91/HEPU/1279
Experiment: Primary Giardia screen at 10 µM (live-cell imaging, automated counting)
Type: cell-based, Giardia duodenalis
Details: 48 h, first singlicate assay
quantity_measured: % Inhibition n=1 48h (%)
Report only the number, with the unit % understood.

Check out these entries, answers already filled in.
Cc1cc(C(=O)COC(=O)C2(O)CCCCC2)c(C)n1-c1c(C)n(C)n(-c2ccccc2)c1=O; 1.1
O=C(CCc1cnn(-c2ccccc2)c1)Nc1cc(C2CCOCC2)[nH]n1; 8.0
Cc1ccccc1OCC(=O)N1CCN(Cc2nnc3n2CCCCC3)CC1; 0.5

Recorded result, Cc1ccccc1C1CCCN1Cc1nc2c(cnn2C)c(=O)[nH]1 (stereo not drawn) , % Inhibition n=1 48h: 56.4

Item: CC(=O)c1cccc(NC(=O)C2CCCN(S(=O)(=O)c3c(C)noc3C)C2)c1 (stereo not drawn) | % Inhibition n=1 48h: 0.0

# % Inhibition n=1 48h of `O=C1C(=O)N(Cc2coc(-c3ccc(Cl)cc3)n2)C(=O)N1Cc1ccccc1` = 18.6

Memo: CCOC(=O)c1cc2n(n1)CC(C)(C(=O)NCCC(C)C)N(CCc1cccs1)C2=O (stereo not drawn) , reported % Inhibition n=1 48h: 6.6

So, `O=S(=O)(c1ccc(F)cc1)N1CCN=C1N1CCCCC1` ? Its % Inhibition n=1 48h was 15.7

The reported value for `Cc1nc(C)c2c(n1)N(CCN(C)C1CCCCC1)C(=O)CC2` in terms of % Inhibition n=1 48h is 0.0

% Inhibition n=1 48h recorded for this compound, CCCN1C(=O)c2cc(C(=O)Nc3ccc(F)cc3)ccc2C1Nc1ccc(F)cc1 (stereo not drawn) , is 13.3

Lab note: COc1ccc(N2CC(c3noc(-c4ccc(C(C)(C)C)cc4)n3)CC2=O)cc1 (stereo not drawn) gave % Inhibition n=1 48h of 0.0

// field: % Inhibition n=1 48h; key: `CN1C(=O)Cc2cc(-c3csc(N=C(N)N)n3)ccc21` ; value = 0.0

# % Inhibition n=1 48h (compound: `CCc1ccc(-n2c(CN3CCN(S(C)(=O)=O)CC3)nc3cccnc32)cc1` ) is 7.0

Field % Inhibition n=1 48h (entry `CC(C)(C)c1ccc(C(=O)N2CCC3(CC2)N=C(c2cccc(Cl)c2)C(=O)N3)cc1` ) reads 32.1

GET /value?item= CNC(=O)N1C[C@@H](CN(C)C)[C@@H](C2CCN(CCC(C)C)CC2)C1 (relative stereo) &field=% Inhibition n=1 48h returns 0.0
